# Target Or Test System: T1, His-tagged CEACAM1 (human, UniProt P13688 35-428)
# T1 construct: 45 kDa SPR analyte; also called CEACAM1-HIS; CEACAM1 analyte
# T1 sequence: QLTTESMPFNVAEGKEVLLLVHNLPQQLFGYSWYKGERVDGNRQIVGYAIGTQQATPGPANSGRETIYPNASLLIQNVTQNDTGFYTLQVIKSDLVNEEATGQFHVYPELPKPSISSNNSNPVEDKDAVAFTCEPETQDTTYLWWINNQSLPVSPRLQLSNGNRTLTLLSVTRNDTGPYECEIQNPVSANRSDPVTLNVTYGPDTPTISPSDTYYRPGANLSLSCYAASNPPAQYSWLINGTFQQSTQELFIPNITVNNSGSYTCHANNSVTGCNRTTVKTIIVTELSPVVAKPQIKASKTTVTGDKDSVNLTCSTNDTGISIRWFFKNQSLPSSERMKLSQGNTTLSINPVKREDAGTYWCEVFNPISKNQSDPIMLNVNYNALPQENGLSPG
# Protocol Notes: SPR multi-cycle, IgG captured
Reported Metric: kon (M⁻¹ s⁻¹)
Give the value in M⁻¹ s⁻¹ but do not write M⁻¹ s⁻¹ after it.

Sure, the documented kon for VH2/Vκ12 (antibody, IgG4, V domains shown, IgG4 (S241P), kappa) VH: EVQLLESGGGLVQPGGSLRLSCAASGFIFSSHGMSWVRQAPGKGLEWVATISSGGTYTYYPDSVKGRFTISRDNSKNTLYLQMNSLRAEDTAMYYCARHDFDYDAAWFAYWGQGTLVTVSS VL: EIVLTQSPATLSLSPGERATLSCRANSSVSYMYWYQQKPGQAPRPLIYLTSNRATGIPARFSGSGSGTDYTLTISSLEPEDFATYYCQQWSSNPPTFGQGTKLEIK is 302000

Sure, the documented kon for VH1/Vκ12 (antibody, IgG4, V domains shown, IgG4 (S241P), kappa) VH: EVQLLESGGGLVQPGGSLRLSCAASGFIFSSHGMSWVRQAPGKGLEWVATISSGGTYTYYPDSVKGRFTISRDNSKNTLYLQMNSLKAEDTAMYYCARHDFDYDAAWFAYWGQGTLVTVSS VL: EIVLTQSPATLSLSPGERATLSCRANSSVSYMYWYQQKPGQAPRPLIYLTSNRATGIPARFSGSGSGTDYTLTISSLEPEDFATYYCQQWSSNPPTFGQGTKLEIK is 411000

Sure, the documented kon for VH2/Vκ7 (antibody, IgG4, V domains shown, IgG4 (S241P), kappa) VH: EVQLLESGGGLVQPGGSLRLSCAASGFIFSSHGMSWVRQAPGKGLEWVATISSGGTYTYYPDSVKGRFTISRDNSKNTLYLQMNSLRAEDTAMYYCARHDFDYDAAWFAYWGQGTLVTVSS VL: EIVLTQSPATLSLSPGERATLSCRANSSVSYMYWYQQKPGQAPRPWIYLTSNRATGVPARFSGSGSGTDFTLTISSLEPEDFATYYCQQWSSNPPTFGQGTKLEIK is 362000
